cell viability values by entry
tested on: ES2; assay: cell viability relative to DMSO control (MTS) (fraction of DMSO control); higher = more viable cells / less growth inhibition; settings: 10 µM; 48 h

smi	cell viability
N[C@@H]1C[C@H]1c1cc(F)cc(F)c1OCc1ccccc1	0.792
CO/C1=C\C(C)=C\[C@@H](C)[C@@H](O)[C@@H](C)C/C(C)=C/C=C/[C@H](OC)[C@@H]([C@@H](C)[C@@H](O)[C@H](C)[C@@]2(O)C[C@@H](O)[C@H](C)[C@@H](C(C)C)O2)OC1=O	0.467
CC(C)[C@@H]1NC(=O)[C@H](C)OC(=O)[C@@H](C(C)C)NC(=O)[C@@H](C(C)C)OC(=O)[C@H](C(C)C)NC(=O)[C@H](C)OC(=O)[C@@H](C(C)C)NC(=O)[C@@H](C(C)C)OC(=O)[C@H](C(C)C)NC(=O)[C@H](C)OC(=O)[C@@H](C(C)C)NC(=O)[C@@H](C(C)C)OC1=O	0.482
O=C(O)c1nn(Cc2ccc(Cl)cc2Cl)c2ccccc12	0.925
C[C@@H]1O[C@@H](O[C@H]2C[C@@H](O)[C@]3(CO)[C@H]4[C@H](O)C[C@]5(C)[C@@H](C6=CC(=O)OC6)CC[C@]5(O)[C@@H]4CC[C@]3(O)C2)[C@H](O)[C@H](O)[C@H]1O	0.439

Numbers sourced from the supplement of paper PMC12669797.
